Answer each item with its documented log10 IC50.
target: CDK7/CycHMAT1 (Homo sapiens, UniProt P50613); test: IC50 by mobility shift assay; type: biochemical; conditions: Table 2, mobility shift assay; read-out: IC50 (μM), Kinase CDK7/CycH/MAT1
Sequence (P50613 whole entry): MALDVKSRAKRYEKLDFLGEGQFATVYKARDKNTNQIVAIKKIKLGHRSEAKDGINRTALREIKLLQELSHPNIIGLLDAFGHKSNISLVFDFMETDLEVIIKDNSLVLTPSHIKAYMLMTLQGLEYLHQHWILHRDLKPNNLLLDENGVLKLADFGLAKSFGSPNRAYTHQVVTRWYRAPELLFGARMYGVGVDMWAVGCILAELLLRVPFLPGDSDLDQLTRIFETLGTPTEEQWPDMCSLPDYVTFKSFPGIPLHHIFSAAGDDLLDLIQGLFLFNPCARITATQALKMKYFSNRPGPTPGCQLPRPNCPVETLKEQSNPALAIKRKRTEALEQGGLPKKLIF
Sequence (P51946 whole entry partner): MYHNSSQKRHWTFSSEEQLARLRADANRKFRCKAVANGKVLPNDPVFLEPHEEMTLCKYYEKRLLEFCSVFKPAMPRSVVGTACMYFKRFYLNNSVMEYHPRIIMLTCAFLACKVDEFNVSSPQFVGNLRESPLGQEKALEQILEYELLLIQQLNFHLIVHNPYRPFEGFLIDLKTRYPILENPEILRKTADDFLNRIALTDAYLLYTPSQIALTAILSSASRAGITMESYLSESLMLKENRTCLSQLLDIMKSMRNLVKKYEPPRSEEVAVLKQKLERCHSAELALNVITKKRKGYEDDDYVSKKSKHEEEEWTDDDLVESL
Sequence (P51948 whole entry partner): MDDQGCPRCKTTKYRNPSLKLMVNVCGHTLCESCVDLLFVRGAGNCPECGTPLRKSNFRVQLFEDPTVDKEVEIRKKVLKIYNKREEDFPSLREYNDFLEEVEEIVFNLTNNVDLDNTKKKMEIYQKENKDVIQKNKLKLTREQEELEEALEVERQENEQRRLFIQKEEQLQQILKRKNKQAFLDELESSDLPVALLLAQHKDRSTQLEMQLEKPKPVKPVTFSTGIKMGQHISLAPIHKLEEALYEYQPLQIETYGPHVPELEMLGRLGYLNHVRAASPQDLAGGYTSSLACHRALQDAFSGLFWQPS
Transform log10 | Measure IC50 | Unit µM

Data request: I'd like to know its log10 IC50. The compound in question is C[C@H]1CC[C@H]2C(C)(C)CCC[C@]2(C)c2c1oc1c(C=O)c(O)c(O)cc21
Data returned: 0.96

Data request: I'd like to know its log10 IC50. The compound in question is C[C@@H]1CC[C@H]2C(C)(C)CCC[C@]2(C)c2c1oc1c(C=O)c3c(cc21)OCO3
Data returned: 1.21

Data request: I'd like to know its log10 IC50. The compound in question is C[C@H]1CC[C@H]2C(C)(C)CCC[C@]2(C)/C1=C/c1cc(O)c(O)c(C=O)c1O [SD-2, 8-epi-siphonodictyal B]
Data returned: 0.63

Data request: I'd like to know its log10 IC50. The compound in question is C[C@@H]1CC[C@H]2C(C)(C)CCC[C@]2(C)/C1=C/c1cc(O)c(O)c(C=O)c1O
Data returned: 1.14

Data request: I'd like to know its log10 IC50. The compound in question is C[C@H]1CC[C@H]2C(C)(C)CCC[C@]2(C)c2c1oc1c(C=O)c3c(cc21)OCO3
Data returned: 2.28

Data request: I'd like to know its log10 IC50. The compound in question is C[C@@H]1CC[C@H]2C(C)(C)CCC[C@]2(C)c2c1oc1c(C=O)c(O)c(O)cc21
Data returned: 0.10

----------
target: PIK3α (PIK3CA/PIK3R1) (Homo sapiens); experiment: IC50 by mobility shift assay; format: biochemical; details: Table 2, mobility shift assay; read-out: IC50 (μM), Kinase PIK3CA/PIK3RI
Sequence (P42336 whole entry): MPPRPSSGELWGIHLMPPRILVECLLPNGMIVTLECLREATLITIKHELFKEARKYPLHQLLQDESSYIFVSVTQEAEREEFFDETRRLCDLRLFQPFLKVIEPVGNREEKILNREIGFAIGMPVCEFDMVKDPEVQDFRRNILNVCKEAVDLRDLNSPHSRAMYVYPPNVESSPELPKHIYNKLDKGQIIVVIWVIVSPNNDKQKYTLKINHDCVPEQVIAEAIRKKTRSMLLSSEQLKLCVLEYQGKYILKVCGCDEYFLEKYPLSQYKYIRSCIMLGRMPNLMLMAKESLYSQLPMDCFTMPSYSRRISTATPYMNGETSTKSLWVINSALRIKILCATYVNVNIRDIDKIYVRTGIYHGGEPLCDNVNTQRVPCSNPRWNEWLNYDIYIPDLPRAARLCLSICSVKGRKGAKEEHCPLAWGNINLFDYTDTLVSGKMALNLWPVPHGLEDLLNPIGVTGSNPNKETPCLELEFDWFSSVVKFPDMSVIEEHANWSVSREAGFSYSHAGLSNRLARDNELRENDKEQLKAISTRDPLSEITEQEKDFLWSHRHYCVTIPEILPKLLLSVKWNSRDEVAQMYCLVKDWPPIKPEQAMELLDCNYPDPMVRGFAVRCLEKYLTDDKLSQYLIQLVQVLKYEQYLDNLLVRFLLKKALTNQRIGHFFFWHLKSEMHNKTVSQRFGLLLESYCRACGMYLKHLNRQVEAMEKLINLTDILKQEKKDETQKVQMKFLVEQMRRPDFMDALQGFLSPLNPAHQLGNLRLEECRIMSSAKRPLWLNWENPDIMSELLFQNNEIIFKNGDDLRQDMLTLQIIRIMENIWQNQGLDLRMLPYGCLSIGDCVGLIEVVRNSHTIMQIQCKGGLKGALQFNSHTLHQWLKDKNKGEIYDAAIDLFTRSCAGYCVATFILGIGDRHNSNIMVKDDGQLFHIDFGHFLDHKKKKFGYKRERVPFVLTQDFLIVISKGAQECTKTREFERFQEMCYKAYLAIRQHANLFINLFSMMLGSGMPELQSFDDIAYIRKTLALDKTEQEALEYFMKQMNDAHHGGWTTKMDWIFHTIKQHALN
Sequence (P27986 whole entry partner): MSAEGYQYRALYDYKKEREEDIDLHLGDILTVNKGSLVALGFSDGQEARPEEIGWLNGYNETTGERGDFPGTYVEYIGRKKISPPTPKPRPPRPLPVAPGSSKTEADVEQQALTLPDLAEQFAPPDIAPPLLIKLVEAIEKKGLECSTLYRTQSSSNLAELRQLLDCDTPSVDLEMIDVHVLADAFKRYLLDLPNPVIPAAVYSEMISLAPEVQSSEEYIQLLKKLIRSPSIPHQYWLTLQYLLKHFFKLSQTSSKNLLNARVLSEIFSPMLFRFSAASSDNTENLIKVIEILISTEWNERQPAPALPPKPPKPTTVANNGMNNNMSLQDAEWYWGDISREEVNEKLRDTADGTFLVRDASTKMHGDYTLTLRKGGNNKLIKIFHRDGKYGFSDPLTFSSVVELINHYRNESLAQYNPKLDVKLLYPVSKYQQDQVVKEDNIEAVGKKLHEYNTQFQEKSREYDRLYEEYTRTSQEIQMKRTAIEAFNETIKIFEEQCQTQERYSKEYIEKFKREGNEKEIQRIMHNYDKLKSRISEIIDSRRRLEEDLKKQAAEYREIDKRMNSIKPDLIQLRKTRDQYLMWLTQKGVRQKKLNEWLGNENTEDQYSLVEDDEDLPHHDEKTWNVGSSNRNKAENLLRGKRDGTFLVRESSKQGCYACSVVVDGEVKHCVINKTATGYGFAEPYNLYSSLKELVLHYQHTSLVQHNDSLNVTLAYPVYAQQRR
result-type: IC50
Could you kindly put the unit after your number?

Data request: // lookup IC50 | system=PIK3α (PIK3CA/PIK3R1) (Homo sapiens) | key= C[C@H]1CC[C@H]2C(C)(C)CCC[C@]2(C)c2c1oc1c(C=O)c(O)c(O)cc21
Data returned: 1.72 µM

Data request: // lookup IC50 | system=PIK3α (PIK3CA/PIK3R1) (Homo sapiens) | key= C[C@H]1CC[C@H]2C(C)(C)CCC[C@]2(C)c2c1oc1c(C=O)c3c(cc21)OCO3
Data returned: 4.43 µM

Data request: // lookup IC50 | system=PIK3α (PIK3CA/PIK3R1) (Homo sapiens) | key= C[C@H]1CC[C@H]2C(C)(C)CCC[C@]2(C)/C1=C/c1cc(O)c(O)c(C=O)c1O [SD-2, 8-epi-siphonodictyal B]
Data returned: 3.26 µM

Data request: // lookup IC50 | system=PIK3α (PIK3CA/PIK3R1) (Homo sapiens) | key= C[C@@H]1CC[C@H]2C(C)(C)CCC[C@]2(C)c2c1oc1c(C=O)c3c(cc21)OCO3
Data returned: 4.26 µM

Data request: // lookup IC50 | system=PIK3α (PIK3CA/PIK3R1) (Homo sapiens) | key= C[C@@H]1CC[C@H]2C(C)(C)CCC[C@]2(C)c2c1oc1c(C=O)c(O)c(O)cc21
Data returned: 4.12 µM

Data request: // lookup IC50 | system=PIK3α (PIK3CA/PIK3R1) (Homo sapiens) | key= C[C@@H]1CC[C@H]2C(C)(C)CCC[C@]2(C)/C1=C/c1cc(O)c(O)c(C=O)c1O
Data returned: 2.62 µM
